# Target Or Test System: T1, canine NGF tagged at the C-terminus with the Flag tag (canine, UniProt A0A8I3PYI3 122-241)
# T1 construct: mature; Expressed with baculovirus technology; also called feline NGF (processed form identical)
# T1 sequence (A0A8I3PYI3 entry or part of it): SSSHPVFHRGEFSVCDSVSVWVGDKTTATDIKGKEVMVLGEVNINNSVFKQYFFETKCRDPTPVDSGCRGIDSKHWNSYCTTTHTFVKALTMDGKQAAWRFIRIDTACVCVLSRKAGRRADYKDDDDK
# Protocol Text: SPR off-rate assay, Fab-SASA on BSA chip
Flag rule - Ratio (kd) WT/clones less than 200 flags criterion met; the remaining entries get criterion not met.

INSERT INTO measurements (binder, qualitative_label) VALUES
  ('AHF17597 (Fab, V domains shown, not shown: small tags and cut ends) VH: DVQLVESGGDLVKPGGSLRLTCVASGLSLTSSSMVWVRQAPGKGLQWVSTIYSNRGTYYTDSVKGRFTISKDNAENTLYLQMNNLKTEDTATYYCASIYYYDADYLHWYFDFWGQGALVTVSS VL: EIQMTQSPTSLSASVGDRVTITCRASEGIQNNLSWYQQTPGKAPKLLIYATSILHSGVPSRFSGSGSGTDFTLTISSLQPEDFATYYCQQGYKWPLTFGGGTKLEITR', 'criterion met'),
  ('AHF17605 (Fab, V domains shown, not shown: small tags and cut ends, Fab-SASA, combinatorial library) VH: DVQLVESGGDLVKPGGSLRLTCVASGLSLTSSSMVWVRQAPGKGLQWVSTIYSNGGTYYTDSVKGRFTISKDNAENTLYLQMNNLKTEDTATYYCAQIYYYDADYLHWYFDFWGQGALVTVSS VL: EIQMTQSPTSLSASVGDRVTITCRASEGIANNLSWYQQTPGKAPKLLIYATSILHSGVPSRFSGSGSGTDFTLTISSLQPEDFATYYCQQGYKWPLTFGGGTKLEITR', 'criterion met'),
  ('AHF17610 (Fab, V domains shown, not shown: small tags and cut ends) VH: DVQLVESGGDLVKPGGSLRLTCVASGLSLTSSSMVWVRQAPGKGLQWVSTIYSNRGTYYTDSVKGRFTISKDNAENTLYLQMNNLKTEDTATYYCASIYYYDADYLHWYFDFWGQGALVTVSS VL: EIQMTQSPTSLSASVGDRVTITCRASEGIANNLSWYQQTPGKAPKLLIYATSNLHSGVPSRFSGSGSGTDFTLTISSLQPEDFATYYCQQGYKWPLTFGGGTKLEITR', 'criterion not met'),
  ('AHF17608 (Fab, V domains shown, not shown: small tags and cut ends) VH: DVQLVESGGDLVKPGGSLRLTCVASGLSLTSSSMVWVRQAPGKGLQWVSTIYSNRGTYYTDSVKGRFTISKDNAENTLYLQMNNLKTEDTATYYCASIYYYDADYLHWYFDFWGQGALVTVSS VL: EIQMTQSPTSLSASVGDRVTITCRASEGIANNLSWYQQTPGKAPKLLIYATSVLHSGVPSRFSGSGSGTDFTLTISSLQPEDFATYYCQQGYKWPLTFGGGTKLEITR', 'criterion not met'),
  ('AHF17593 (Fab, V domains shown, not shown: small tags and cut ends, Fab-SASA, combinatorial library) VH: DVQLVESGGDLVKPGGSLRLTCVASGLSLTSSSMVWVRQAPGKGLQWVSTIYSNRGTYYTDSVKGRFTISKDNAENTLYLQMNNLKTEDTATYYCAQIYYYDADYLHWYFDFWGQGALVTVSS VL: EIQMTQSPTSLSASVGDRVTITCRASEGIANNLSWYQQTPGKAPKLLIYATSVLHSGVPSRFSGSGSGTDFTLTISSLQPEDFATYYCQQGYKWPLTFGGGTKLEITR', 'criterion not met'),
  ('AHF17591 (Fab, V domains shown, not shown: small tags and cut ends) VH: DVQLVESGGDLVKPGGSLRLTCVASGLSLTSSSMVWVRQAPGKGLQWVSTIYSNRGTYYTDSVKGRFTISKDNAENTLYLQMNNLKTEDTATYYCASIYYYDADYLHWYFDEWGQGALVTVSS VL: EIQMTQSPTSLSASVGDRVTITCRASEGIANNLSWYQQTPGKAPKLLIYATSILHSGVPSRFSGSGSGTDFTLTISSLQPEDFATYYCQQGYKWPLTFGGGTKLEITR', 'criterion not met'),
  ('AHF17604 (Fab, V domains shown, not shown: small tags and cut ends, Fab-SASA, combinatorial library) VH: DVQLVESGGDLVKPGGSLRLTCVASGLSLTSSSMVWVRQAPGKGLQWVSTIYSNRGTYYTDSVKGRFTISKDNAENTLYLQMNNLKTEDTATYYCAQIYYYDADYLHWYFDFWGQGALVTVSS VL: EIQMTQSPTSLSASVGDRVTITCRASEGIQNNLSWYQQTPGKAPKLLIYATSILHSGVPSRFSGSGSGTDFTLTISSLQPEDFATYYCQQGYKWPLTFGGGTKLEITR', 'criterion met'),
  ('AHF17596 (Fab, V domains shown, not shown: small tags and cut ends) VH: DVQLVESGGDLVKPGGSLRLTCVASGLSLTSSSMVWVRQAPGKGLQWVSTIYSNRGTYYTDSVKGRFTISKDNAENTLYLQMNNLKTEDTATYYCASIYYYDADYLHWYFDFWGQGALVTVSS VL: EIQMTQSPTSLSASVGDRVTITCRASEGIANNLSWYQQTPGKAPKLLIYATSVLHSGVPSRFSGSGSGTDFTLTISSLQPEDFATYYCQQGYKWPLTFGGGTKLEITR', 'criterion met'),
  ('AHF17594 (Fab, V domains shown, not shown: small tags and cut ends) VH: DVQLVESGGDLVKPGGSLRLTCVASGLSLTSSSMVWVRQAPGKGLQWVSTIYSNGGTYYTDSVKGRFTISKDNAENTLYLQMNNLKTEDTATYYCASIYYYDADYLHWYFDFWGQGALVTVSS VL: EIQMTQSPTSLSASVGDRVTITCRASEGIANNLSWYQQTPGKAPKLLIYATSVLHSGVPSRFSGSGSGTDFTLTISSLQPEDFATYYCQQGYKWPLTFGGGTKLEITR', 'criterion met'),
  ('AHF17602 (Fab-SASA) (Fab, V domains shown, not shown: small tags and cut ends) VH: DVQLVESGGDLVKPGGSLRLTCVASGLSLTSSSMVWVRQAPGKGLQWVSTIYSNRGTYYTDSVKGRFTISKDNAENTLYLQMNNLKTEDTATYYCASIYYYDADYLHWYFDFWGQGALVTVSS VL: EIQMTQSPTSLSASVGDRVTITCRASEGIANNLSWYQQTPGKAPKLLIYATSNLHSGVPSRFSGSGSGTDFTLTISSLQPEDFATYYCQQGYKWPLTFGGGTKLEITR', 'criterion not met');
